System: KHYG-1 (IL-2 2.5 ng/mL)
Test protocol: percent inhibition of viability; higher = more inhibition
Experimental conditions: 72 h; 250 nM

Molecule: O=C(c1cccc(Cl)c1F)N1CCN(Cc2cccc(Nc3nccs3)n2)CC1 [MK-8745] (max concentration tested 2500 nM)
Quantity unit: %
percent inhibition of viability: 6.09

Molecule: CCOc1cc2ncc(C#N)c(Nc3ccc(F)c(Cl)c3)c2cc1NC(=O)/C=C/CN(C)C [Pelitinib] (max concentration tested 2500 nM)
Quantity unit: %
percent inhibition of viability: 25.7

Molecule: COc1cc2nccc(Oc3ccc(NC(=O)NC4CC4)c(Cl)c3)c2cc1C(N)=O [Lenvatinib] (max concentration tested 2500 nM)
Quantity unit: %
percent inhibition of viability: 2.55

Molecule: CCNC(=O)Nc1ccc(-c2nc3c(c(N4CCOC[C@@H]4C)n2)CCN(C2COC2)C3)cc1 [RG-7603] (max concentration tested 2500 nM)
Quantity unit: %
percent inhibition of viability: 6.5

---

System: DERL-7 (IL-2 2.5 ng/mL)
Test protocol: percent inhibition of viability; higher = more inhibition
Experimental conditions: 72 h; 1000 nM
Each entry below carries its recorded percent inhibition of viability.
Quantity: percent inhibition of viability (%)

Molecule: COc1ccc(-c2cc3c(C)nc(N)nc3n([C@H]3CC[C@H](OCCO)CC3)c2=O)cn1 (max concentration tested 10000 nM)
Data value: 92
//
Molecule: CNNCc1ccc(C(=O)NC(C)C)cc1 [Procarbazine] (max concentration tested 10000 nM)
Data value: -4.02
//
Molecule: O=C(NC1CCNCC1)c1n[nH]cc1NC(=O)c1c(Cl)cccc1Cl [AT7519] (max concentration tested 10000 nM)
Data value: 99.2
//
Molecule: Clc1ccccc1C(c1ccccc1)(c1ccccc1)n1cccn1 [TRAM-34] (max concentration tested 1000 nM)
Data value: 3.63

---

Tested on: normal primary NK cells, pool 2 (3 donors) (IL-2 2.5 ng/mL)
Test protocol: percent inhibition of viability; higher = more inhibition
Experimental conditions: 72 h; 1000 nM
Quantity: percent inhibition of viability (%)

Compound: C#Cc1cccc(Nc2ncnc3cc(OCCOC)c(OCCOC)cc23)c1 [Erlotinib] (max concentration tested 10000 nM)
Quantity unit: %
Data value: 4.86
--
Compound: O=C(NC1CCNCC1)c1n[nH]cc1NC(=O)c1c(Cl)cccc1Cl [AT7519] (max concentration tested 10000 nM)
Quantity unit: %
Data value: 95.2
--
Compound: N.N.[Cl][Pt][Cl] [Cisplatin] (max concentration tested 100000 nM)
Quantity unit: %
Data value: -1.72
--
Compound: CNC(=O)c1cc(Oc2ccc(NC(=O)Nc3ccc(Cl)c(C(F)(F)F)c3)cc2)ccn1 [Sorafenib] (max concentration tested 1000 nM)
Quantity unit: %
Data value: -14.1
--
Compound: CCN(CC)CCCC(C)Nc1ccnc2cc(Cl)ccc12 (stereo not given) [Chloroquine] (max concentration tested 100000 nM)
Quantity unit: %
Data value: 3.84
--
Compound: O=C1CCC(N2C(=O)c3ccccc3C2=O)C(=O)N1 (stereo not given) [Thalidomide] (max concentration tested 10000 nM)
Quantity unit: %
Data value: 8.57
--
Compound: c1cc(CN2CCCNCCNCCCNCC2)ccc1CN1CCCNCCNCCCNCC1 [Plerixafor] (max concentration tested 10000 nM)
Quantity unit: %
Data value: -15
--
Compound: CO[C@@H]1[C@H](N(C)C(=O)c2ccccc2)C[C@H]2O[C@]1(C)n1c3ccccc3c3c4c(c5c6ccccc6n2c5c31)C(=O)NC4 [Midostaurin] (max concentration tested 10000 nM)
Quantity unit: %
Data value: 76.7
--
Compound: CS(=O)(=O)c1ccc(C2=C(c3ccccc3)C(=O)OC2)cc1 [Rofecoxib] (max concentration tested 10000 nM)
Quantity unit: %
Data value: -8.51
--
Compound: COc1cc2c(Oc3ccc(NC(=O)C4(C(=O)Nc5ccc(F)cc5)CC4)cc3F)ccnc2cc1OCCCN1CCOCC1 [Foretinib] (max concentration tested 1000 nM)
Quantity unit: %
Data value: -2.41
--
Compound: CC(O)(CS(=O)(=O)c1ccc(F)cc1)C(=O)Nc1ccc(C#N)c(C(F)(F)F)c1 (stereo not given) [Bicalutamide] (max concentration tested 10000 nM)
Quantity unit: %
Data value: -0.13
--
Compound: CN1CCc2c(c3ccccc3n2Cc2ccc(C(=O)NO)cc2)C1 [Tubastatin A] (max concentration tested 10000 nM)
Quantity unit: %
Data value: 7.48
--
Compound: O=C(O)c1ccc2c(c1)nc(Nc1cccc(Cl)c1)c1ccncc12 [Silmitasertib] (max concentration tested 10000 nM)
Quantity unit: %
Data value: 8.72
--
Compound: CCc1c(C(=O)C(N)=O)c2c(OCC(=O)O)cccc2n1Cc1ccccc1 [Varespladib] (max concentration tested 10000 nM)
Quantity unit: %
Data value: 6.26
--
Compound: Nc1cc(F)ccc1NC(=O)/C=C/c1cnn(C/C=C/c2ccccc2)c1 [RGFP966] (max concentration tested 10000 nM)
Quantity unit: %
Data value: 0.44
--
Compound: O=NN(CCCl)C(=O)NC1CCCCC1 [Lomustine] (max concentration tested 10000 nM)
Quantity unit: %
Data value: -11.4
--
Compound: CNCc1ccc(-c2[nH]c3cc(F)cc4c3c2CCNC4=O)cc1 [Rucaparib] (max concentration tested 10000 nM)
Quantity unit: %
Data value: -1.32
--
Compound: COc1ccc(-c2cc3c(C)nc(N)nc3n([C@H]3CC[C@H](OCCO)CC3)c2=O)cn1 (max concentration tested 10000 nM)
Quantity unit: %
Data value: 39.9
--
Compound: CNNCc1ccc(C(=O)NC(C)C)cc1 [Procarbazine] (max concentration tested 10000 nM)
Quantity unit: %
Data value: -10
--
Compound: Cc1c(C(=O)Nc2ccc(N3C[C@@H](C)O[C@@H](C)C3)nc2)cccc1-c1ccc(OC(F)(F)F)cc1 [Sonidegib] (max concentration tested 10000 nM)
Quantity unit: %
Data value: -3.08
--
Compound: COc1cc(N2CCN(C)CC2)ccc1Nc1nccc(-c2cn(C)c3cnccc23)n1 [AZ191] (max concentration tested 10000 nM)
Quantity unit: %
Data value: -11.2
--
Compound: Cc1cn(-c2cc(NC(=O)c3ccc(C)c(Nc4nccc(-c5cccnc5)n4)c3)cc(C(F)(F)F)c2)cn1 [Nilotinib] (max concentration tested 10000 nM)
Quantity unit: %
Data value: -4.04
--
Compound: CS(=O)(=O)N1CCc2c(-c3cnc(N)nc3)nc(N3CCOCC3)nc21 (max concentration tested 10000 nM)
Quantity unit: %
Data value: 21.6
--
Compound: CO[C@H]1/C=C\C=C(/C)C(=O)NC2=CC(=O)C(NCCN(C)C)=C(C[C@@H](C)C[C@H](OC)[C@H](O)[C@@H](C)/C=C(\C)[C@@H]1OC(N)=O)C2=O [Alvespimycin] (max concentration tested 1000 nM)
Quantity unit: %
Data value: 82.6
--
Compound: COc1cc2ncnc(Oc3cccc(NC(=O)Nc4cc(C(C)(C)C(F)(F)F)on4)c3)c2cc1OC (max concentration tested 10000 nM)
Quantity unit: %
Data value: -2.04

---

System: normal primary NK cells, pool 2 (3 donors) (IL-2 2.5 ng/mL)
Test protocol: percent inhibition of viability; higher = more inhibition
Experimental conditions: 72 h; 100 nM
Quantity: percent inhibition of viability (%)

Compound: Cc1ncc(-c2ccnc(Nc3ccc(S(C)(=O)=O)cc3)n2)n1C(C)C [AZD-5438] (max concentration tested 10000 nM)
Quantity: percent inhibition of viability
Data value: -8.52

Compound: CC[C@H](CO)Nc1nc(NCc2ccccc2)c2ncn(C(C)C)c2n1 [Seliciclib] (max concentration tested 10000 nM)
Quantity: percent inhibition of viability
Data value: 5.97

Compound: CC(C)N(CCCNC(=O)Nc1ccc(C(C)(C)C)cc1)C[C@H]1O[C@@H](n2cc(Br)c3c(N)ncnc32)[C@H](O)[C@@H]1O [SGC0946] (max concentration tested 10000 nM)
Quantity: percent inhibition of viability
Data value: 8.39

---

Test system: YT (IL-2 2.5 ng/mL)
Test protocol: drug sensitivity score (DSS) (DSS units); higher = more sensitive; extreme values may be limits of the assay
Experimental conditions: 72 h
Lab note: compare drug sensitivity score against 3. Equal or greater, write Condition met. Smaller, write Condition not met.

Compound: O=C(c1cc(Cc2n[nH]c(=O)c3ccccc23)ccc1F)N1CCN(C(=O)C2CC2)CC1 [Olaparib] (max concentration tested 10000 nM)
Group label: Condition not met

Compound: CNC(=O)c1nn(C)c2c1C(C)(C)Cc1cnc(Nc3ccc(N4CCN(C)CC4)cc3)nc1-2 [Milciclib] (max concentration tested 10000 nM)
Group label: Condition met

Compound: Cc1cc(Nc2cc(N3CCN(C)CC3)nc(Sc3ccc(NC(=O)C4CC4)cc3)n2)n[nH]1 [Tozasertib] (max concentration tested 10000 nM)
Group label: Condition met

Compound: O=C(NOCC1CC1)c1ccc(F)c(F)c1Nc1ccc(I)cc1Cl (max concentration tested 10000 nM)
Group label: Condition met

Compound: Cc1c(C(=O)Nc2ccc(N3C[C@@H](C)O[C@@H](C)C3)nc2)cccc1-c1ccc(OC(F)(F)F)cc1 [Sonidegib] (max concentration tested 10000 nM)
Group label: Condition not met

Compound: CN1CCc2c(c3ccccc3n2Cc2ccc(C(=O)NO)cc2)C1 [Tubastatin A] (max concentration tested 10000 nM)
Group label: Condition met

Compound: COc1cc2nccc(Oc3ccc(NC(=O)NC4CC4)c(Cl)c3)c2cc1C(N)=O [Lenvatinib] (max concentration tested 2500 nM)
Group label: Condition not met

Compound: Cc1c(Cn2c(C)nc3c(C(=O)O)cc(N4CCOCC4)cc32)cccc1C(F)(F)F (max concentration tested 10000 nM)
Group label: Condition not met

Compound: CN[C@@H]1C[C@H]2O[C@@](C)([C@@H]1OC)n1c3ccccc3c3c4c(c5c6ccccc6n2c5c31)C(=O)N[C@H]4O [UCN-01] (max concentration tested 10000 nM)
Group label: Condition met

Compound: Nc1ncnc2c1c(COc1cccc(Cl)c1)nn2C1CCOCC1 (max concentration tested 10000 nM)
Group label: Condition not met

Compound: COc1cc(Nc2c(C#N)cnc3cc(OCCCN4CCN(C)CC4)c(OC)cc23)c(Cl)cc1Cl [Bosutinib] (max concentration tested 10000 nM)
Group label: Condition met

Compound: COc1ccc(-c2ccc3c(N4CCOC[C@@H]4C)nc(N4CCOC[C@@H]4C)nc3n2)cc1CO [AZD8055] (max concentration tested 10000 nM)
Group label: Condition met

Compound: O=C(O)CNC(=O)c1c(O)c2ccccc2n(Cc2ccccc2)c1=O [IOX-2] (max concentration tested 50000 nM)
Group label: Condition not met
